# system_name: T1, recombinant human VEGF165 (human, UniProt P15692-4 27-191)
# T1 construct: also called hVEGF165; rhVEGF165
# assay_text: SPR Biacore T100, hVEGF165 on chip, Two State Reaction model
Response field label: string, one of true (1) (ka2 strictly below 0.02 s⁻¹) or false (0).

binder	cat
VEGFBII010 (VHH, bivalent VHH in one chain; also called VEGFBII23B04-35GS-23B04; homodimeric VEGFBII23B04) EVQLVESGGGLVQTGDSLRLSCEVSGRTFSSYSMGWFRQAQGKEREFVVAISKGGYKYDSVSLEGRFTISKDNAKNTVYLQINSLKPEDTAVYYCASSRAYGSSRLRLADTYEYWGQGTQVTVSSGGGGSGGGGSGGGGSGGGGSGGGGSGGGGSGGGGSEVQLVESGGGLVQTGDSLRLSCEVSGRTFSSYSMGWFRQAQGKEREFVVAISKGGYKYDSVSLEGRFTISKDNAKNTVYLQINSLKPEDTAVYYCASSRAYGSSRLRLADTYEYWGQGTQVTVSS	false (0)
VEGFBII025 (VHH, biparatopic bivalent VHH in one chain; also called VEGFBII10E07-40GS-23B04) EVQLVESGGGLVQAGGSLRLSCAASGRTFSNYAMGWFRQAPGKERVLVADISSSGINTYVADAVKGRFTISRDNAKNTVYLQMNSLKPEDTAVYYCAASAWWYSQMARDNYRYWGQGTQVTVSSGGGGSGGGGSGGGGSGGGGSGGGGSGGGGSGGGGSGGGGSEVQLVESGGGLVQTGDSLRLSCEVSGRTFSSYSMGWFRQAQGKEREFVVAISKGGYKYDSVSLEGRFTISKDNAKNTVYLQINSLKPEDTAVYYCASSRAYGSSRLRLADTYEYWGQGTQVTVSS	true (1)
VEGFBII022 (VHH, biparatopic bivalent VHH in one chain; also called VEGFBII23B04-9GS-5B05) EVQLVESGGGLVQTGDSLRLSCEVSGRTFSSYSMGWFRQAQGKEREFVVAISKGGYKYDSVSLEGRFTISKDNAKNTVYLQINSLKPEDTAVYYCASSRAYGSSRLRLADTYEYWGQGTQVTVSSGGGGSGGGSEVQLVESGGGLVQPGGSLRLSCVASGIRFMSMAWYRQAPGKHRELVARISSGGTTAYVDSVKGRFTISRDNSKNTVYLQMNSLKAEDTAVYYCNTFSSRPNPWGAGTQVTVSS	true (1)
VEGFBII021 (VHH, biparatopic bivalent VHH in one chain; also called VEGFBII23B04-40GS-5B05) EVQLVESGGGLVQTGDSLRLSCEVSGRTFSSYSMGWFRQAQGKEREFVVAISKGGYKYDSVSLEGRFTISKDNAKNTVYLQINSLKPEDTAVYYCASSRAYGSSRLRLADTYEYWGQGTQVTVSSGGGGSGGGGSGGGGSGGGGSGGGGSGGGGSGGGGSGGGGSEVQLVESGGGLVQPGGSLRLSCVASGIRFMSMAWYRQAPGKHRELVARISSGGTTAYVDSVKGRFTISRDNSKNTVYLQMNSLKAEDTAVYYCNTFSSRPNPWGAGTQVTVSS	false (0)
VEGFBII023 (VHH, biparatopic bivalent VHH in one chain; also called VEGFBII23B04-40GS-10E07; VEGFBI023) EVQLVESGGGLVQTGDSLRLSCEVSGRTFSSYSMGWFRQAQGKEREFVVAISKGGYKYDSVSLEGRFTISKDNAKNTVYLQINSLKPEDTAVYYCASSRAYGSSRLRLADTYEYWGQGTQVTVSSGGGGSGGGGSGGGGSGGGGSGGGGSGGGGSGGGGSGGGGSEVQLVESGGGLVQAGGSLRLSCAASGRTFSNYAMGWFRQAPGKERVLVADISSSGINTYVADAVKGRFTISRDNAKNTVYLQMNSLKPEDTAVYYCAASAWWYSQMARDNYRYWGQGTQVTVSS	false (0)
VEGFBII024 (VHH, biparatopic bivalent VHH in one chain; also called VEGFBII23B04-40GS-86H09; VEGFBI024) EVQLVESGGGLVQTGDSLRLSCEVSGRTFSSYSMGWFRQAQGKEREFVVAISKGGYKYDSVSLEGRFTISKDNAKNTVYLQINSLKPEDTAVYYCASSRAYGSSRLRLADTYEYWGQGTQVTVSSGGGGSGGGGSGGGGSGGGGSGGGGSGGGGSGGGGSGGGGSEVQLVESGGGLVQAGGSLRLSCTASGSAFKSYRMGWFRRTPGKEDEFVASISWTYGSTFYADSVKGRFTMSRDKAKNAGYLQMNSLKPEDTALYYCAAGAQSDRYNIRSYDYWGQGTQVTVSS	false (0)

From: patent US20170247475A1
